Test system: SNB-78 CNS
Experiment: NCI tumour cell line growth inhibition, 48 h
TEST READOUT: TGI

Input: Hello, I am looking for reported TGI with SNB-78 CNS for Cc1cccc(C)c1N1C(=O)C(=O)C(c2nc3ccccc3s2)/C(=N\N)C1=O (stereo not given) . Could you help?
Output: > 100 µM

Input: Please answer likewise for O=C(/C=C\c1cccc2ccccc12)c1ccc(Cl)cc1Cl
Output: 45.5 µM

Input: Please answer likewise for O=C(c1ccc(Cl)cc1)c1ccc(OCCCOc2ccc(C(=O)c3ccc(Cl)cc3)cc2Cl)c(Cl)c1
Output: > 100 µM

Input: Please answer likewise for COC(=O)C1=CC2C=CC(C1C(=O)OC)C1C(C(=O)OC)=C(C(=O)OC)C(C(=O)OC)=C(C(=O)OC)C21OC (stereo not given)
Output: > 100 µM

Input: Please answer likewise for COc1cc(C2(c3ncc[nH]3)SSSCC2O)ccc1O (stereo not given)
Output: > 100 µM

----------
Tested on: DU-145 prostate
Test: NCI tumour cell line growth inhibition, 48 h
For each of the compounds below, state its GI50.

Input: For Nc1nc(/C=C\c2ccccc2)nc(N2CCN(c3ccccc3)CC2)n1 , what is its reported GI50?
Output: 39.5 µM

Input: Please answer likewise for CCN(CC)CCCC(C)N/C(=C1\C(=O)NC(=O)\C1=C(/NC(C)CCCN(CC)CC)c1cccc(OC)c1)c1cccc(OC)c1 (centres undefined)
Output: 1.02 µM

Input: Please answer likewise for CO[C@H]1CC(O[C@@H]2/C(C)=C/C[C@@H]3C[C@@H](C[C@]4(CC[C@H](C)[C@@H](C5CCCCC5)O4)O3)OC(=O)[C@@H]3C=C(C)/C(=N/O)[C@H]4OC/C(=C\C=C\[C@@H]2C)[C@]43O)O[C@@H](C)C1O (some centres undefined)
Output: 0.833 µM

Input: Please answer likewise for Cc1cn(Cc2ccc(C34CC5CC(CC(C5)C3)C4)c(O)c2)c(=O)[nH]c1=O
Output: 13.7 µM

Input: Please answer likewise for CN1CCN(Cc2ccc(NC(=O)c3cncc(C#Cc4cnc(N)c5cccnc45)c3)cc2C(F)(F)F)CC1
Output: 0.309 µM

Input: Please answer likewise for N#Cc1cnc(Nc2cc(NC[C@H]3CNCCO3)c(C(F)(F)F)cn2)cn1
Output: 8.07 µM

Input: Please answer likewise for CCN(Cc1cccc(Cl)c1)c1ccc(CO)c(Cl)c1
Output: 11.6 µM

Input: Please answer likewise for COC(=O)c1oc2c(C(=O)/C=C/c3ccc(OC)cc3)c(OCCN(C)C)ccc2c1C
Output: 2.82 µM

Input: Please answer likewise for COC(=O)c1cc2c3ccccc3n3c2c(n1)-c1[nH]c2ccccc2c(=O)c1C3
Output: > 100 µM

Input: Please answer likewise for C/C(=C(\c1ccc(OCCN2CCCCCC2)cc1)c1ccc(OC(=O)c2ccccc2)cc1)c1ccc(Cl)cc1
Output: 5.41 µM

Input: Please answer likewise for Cc1cc(-c2cc(O)ccc2Cl)cc2nnc(Nc3ccc(OCCN4CCCC4)cc3)nc12
Output: 0.206 µM

Input: Please answer likewise for Cn1cc(-c2cnn3c(N)c(Br)c(C4CCCNC4)nc23)cn1 (centres undefined)
Output: 3.2 µM

Input: Please answer likewise for CCOc1ccn(-c2ccc(F)cc2)c(=O)c1C(=O)Nc1ccc(Oc2ccnc(N)c2Cl)c(F)c1
Output: 21.1 µM

Input: Please answer likewise for C#CCN(c1ccc(C(=O)N[C@@H](CCC(=O)N[C@H](CCC(=O)O)C(=O)O)C(=O)O)cc1)C1CCc2cc3nc(CO)[nH]c(=O)c3cc21 (some centres undefined)
Output: 16.5 µM
